Target: human URAT1 (Homo sapiens, UniProt Q96S37)
Construct: Human URAT1 full-length cDNA was introduced to an expression vector pcDNA5/FRT/V5-His TOPO; expressed in transfected cells
Sequence (Q96S37 1-553): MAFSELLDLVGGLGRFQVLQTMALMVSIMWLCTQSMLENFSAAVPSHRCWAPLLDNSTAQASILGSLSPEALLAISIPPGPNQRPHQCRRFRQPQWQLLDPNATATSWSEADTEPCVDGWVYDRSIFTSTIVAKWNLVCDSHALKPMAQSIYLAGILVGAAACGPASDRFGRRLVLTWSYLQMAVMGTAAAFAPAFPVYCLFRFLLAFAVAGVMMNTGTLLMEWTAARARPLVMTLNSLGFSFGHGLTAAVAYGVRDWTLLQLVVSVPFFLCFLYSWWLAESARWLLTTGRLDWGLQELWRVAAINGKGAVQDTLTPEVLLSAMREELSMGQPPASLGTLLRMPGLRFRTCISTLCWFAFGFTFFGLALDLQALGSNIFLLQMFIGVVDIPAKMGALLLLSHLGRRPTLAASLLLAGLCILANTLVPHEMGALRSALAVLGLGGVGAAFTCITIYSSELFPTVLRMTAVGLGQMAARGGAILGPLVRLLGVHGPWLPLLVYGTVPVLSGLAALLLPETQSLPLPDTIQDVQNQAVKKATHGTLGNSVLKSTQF
Experiment: Test for uric acid transport inhibition using human URAT1 expression cells
Format: cell-based
Conditions: human URAT1 stable expression CHO cells; 14C-labeled uric acid 38 μM final; incorporation 5 minutes at room temperature; 100% window defined with benzbromarone 100 μM; read-out: URAT1 inhibitory activity (IC50)
Recorded measurements of pIC50, one per entry
Just the number, please; pIC50 means minus log10 of the concentration in mol/L.

Worked cases, pIC50 given:
>>> value_observed("Cc1cccc(C#N)c1Cn1nc(C)c2ccc(C(F)(F)C(=O)O)cc21")
7.59
>>> value_observed("Cc1nn(Cc2c(C#N)ccnc2Cl)c2cc(C(F)(F)c3nnn[nH]3)ccc12")
7.68
>>> value_observed("Cc1nn(Cc2c(F)cccc2C(F)(F)F)c2cc(C(F)(F)C(=O)O)ccc12")
7.28
>>> value_observed("Cc1nn(Cc2ccc(C#N)cc2)c2cc(C(F)(F)c3nnn[nH]3)ccc12")
7.47

Query :: Fill in the blank: the reported pIC50 of `Cc1nn(Cc2c(C#N)cccc2CO)c2cc(C(F)(F)C(=O)O)ccc12` is ____.
Result :: 6.41

Query :: Recorded pIC50 of `Cc1nn(S(=O)(=O)c2c(Cl)cccc2Cl)c2cc(C(F)(F)c3nnn[nH]3)ccc12` , please.
Result :: 6.85

Query :: Recorded pIC50 for `Cc1cn(Cc2c(Cl)cccc2Cl)c2cc(C(F)(F)C(=O)O)ccc12` , please?
Result :: 7.42

Query :: Quick check: pIC50 of O=C(O)Cc1ccc2c(C(F)(F)F)nn(Cc3c(Cl)cccc3Cl)c2c1 [Reference Example 11, reference compound] ?
Result :: 7.82

---

Target: human URAT1 (Homo sapiens, UniProt Q96S37)
Construct: Human URAT1 full-length cDNA was introduced to an expression vector pcDNA5/FRT/V5-His TOPO
Sequence (Q96S37 1-553): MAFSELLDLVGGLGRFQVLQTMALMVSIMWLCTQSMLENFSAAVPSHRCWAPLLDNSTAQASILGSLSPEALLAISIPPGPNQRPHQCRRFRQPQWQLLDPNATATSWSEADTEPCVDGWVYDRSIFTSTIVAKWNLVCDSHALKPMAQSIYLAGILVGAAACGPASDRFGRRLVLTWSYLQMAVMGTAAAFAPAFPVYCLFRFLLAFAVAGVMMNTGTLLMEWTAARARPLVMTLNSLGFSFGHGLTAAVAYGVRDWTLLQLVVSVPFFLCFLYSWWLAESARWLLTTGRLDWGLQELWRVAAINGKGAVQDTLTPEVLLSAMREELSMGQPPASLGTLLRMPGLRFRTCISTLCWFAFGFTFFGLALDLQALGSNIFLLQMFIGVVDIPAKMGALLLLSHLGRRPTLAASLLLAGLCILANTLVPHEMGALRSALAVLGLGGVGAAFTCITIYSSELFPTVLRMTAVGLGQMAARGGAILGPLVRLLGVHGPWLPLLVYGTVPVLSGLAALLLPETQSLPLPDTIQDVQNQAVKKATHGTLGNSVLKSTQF
Assay: Test for uric acid transport inhibition using human URAT1 expression cells
Conditions: human URAT1 stable expression CHO cells; 14C-labeled uric acid 38 μM final; incorporation 5 minutes at room temperature; 100% window defined with benzbromarone 100 μM; read-out: URAT1 inhibitory activity (IC50)
Quantity kind: IC50 (nM)
Give the number; nM is assumed, so skip it.

>>> value_observed("Cc1cccc(C#N)c1Cn1nc(C)c2ccc(C(F)(F)c3nnn[nH]3)cc21")
6
>>> value_observed("Cc1nn(Cc2c(Cl)cccc2C2CC2)c2cc(C(=O)O)cnc12 [Reference Example 2, reference compound]")
53
>>> value_observed("Cc1nn(Cc2c(C(N)=O)cccc2C2CC2)c2nc(C(F)(F)c3nnn[nH]3)ccc12")
36
>>> value_observed("Cc1nn(Cc2c(F)cccc2Cl)c2cc(C(F)(F)c3n[nH]c(=O)o3)ccc12")
9
>>> value_observed("O=C(O)Cc1ccc2c(Cl)nn(Cc3c(Cl)cccc3Cl)c2c1 [Reference Example 12, reference compound]")
16
>>> value_observed("Cc1nn(Cc2c(Cl)cccc2C2CC2)c2cc(CCC(=O)O)ccc12 [Reference Example 8, reference compound]")
24
>>> value_observed("Cc1nn(Cc2c(Cl)cccc2C2CC2)c2cc(C(F)(F)C(=O)O)cnc12")
34
>>> value_observed("Cc1cccc(Cl)c1Cn1nc(C)c2ccc(C(F)(F)C(=O)O)cc21")
26

// next item, IC50 requested
Query :: What does the record list as IC50 for O=C(O)c1cnc2c(Cl)nn(Cc3c(Cl)cccc3C3CC3)c2c1 [Reference Example 3, reference compound] ?
Result :: 32

---

Target: human URAT1 (Homo sapiens, UniProt Q96S37)
Construct: Human URAT1 full-length cDNA was introduced to an expression vector pcDNA5/FRT/V5-His TOPO
Sequence (Q96S37 1-553): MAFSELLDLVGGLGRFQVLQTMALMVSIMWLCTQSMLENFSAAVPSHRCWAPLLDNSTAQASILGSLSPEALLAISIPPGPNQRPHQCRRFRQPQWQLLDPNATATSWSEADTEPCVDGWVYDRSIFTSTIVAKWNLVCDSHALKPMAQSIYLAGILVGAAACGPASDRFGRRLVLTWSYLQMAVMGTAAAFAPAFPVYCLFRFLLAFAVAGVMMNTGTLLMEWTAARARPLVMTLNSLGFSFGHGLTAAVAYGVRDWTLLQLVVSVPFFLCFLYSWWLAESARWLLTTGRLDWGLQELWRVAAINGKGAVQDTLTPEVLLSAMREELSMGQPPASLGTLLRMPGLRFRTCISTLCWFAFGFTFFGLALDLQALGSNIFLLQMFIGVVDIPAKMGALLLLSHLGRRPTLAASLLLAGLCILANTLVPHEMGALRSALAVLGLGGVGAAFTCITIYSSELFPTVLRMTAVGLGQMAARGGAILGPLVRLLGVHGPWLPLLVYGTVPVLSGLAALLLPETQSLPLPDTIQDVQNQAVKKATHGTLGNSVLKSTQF
Assay: Test for uric acid transport inhibition using human URAT1 expression cells
Conditions: human URAT1 stable expression CHO cells; 14C-labeled uric acid 38 μM final; incorporation 5 minutes at room temperature; 100% window defined with benzbromarone 100 μM; read-out: URAT1 inhibitory activity (IC50)
Protocol: In this Example, it was evaluated whether the Example compound and the Reference example compound mentioned below has the URAT1 inhibitory activity. Human URAT1 full-length cDNA was introduced to an expression vector pcDNA5/FRT/V5-His TOPO (registered trademark) (Invitrogen Corporation). […]
Parameter IC50: see the listing below.
Express it in nM; write the number only.

Example entries and their recorded answers appear below.
>>> value_observed("Cc1cccc(C#N)c1Cn1nc(C)c2ccc(C(F)(F)c3nnn[nH]3)nc21 [Example 109]")
13
>>> value_observed("Cc1nn(Cc2c(Cl)cccc2C(N)=O)c2cc(C(F)(F)c3nnn[nH]3)ccc12 [example 67]")
46

Query :: Which value of IC50 has been reported for CCc1nn(Cc2c(F)cccc2C2CC2)c2cc(C(F)(F)C(=O)O)cnc12 [Example 46] in the records?
Result :: 243

Query :: Need IC50, item Cc1nn(Cc2cccc(Cl)c2Cl)c2cc(C(F)(F)C(=O)O)ccc12 [example 14]
Result :: 48

Query :: Would you mind telling me what IC50 value was observed for Cc1cccc(C(N)=O)c1Cn1nc(C)c2ccc(C(F)(F)c3nnn[nH]3)nc21 [example 110] ?
Result :: 44

Query :: What measured IC50 goes with Cc1nn(Cc2c(Cl)cccc2Cl)c2cc(C(O)c3nnn[nH]3)ccc12 (centres unmarked) [Reference Example 9, reference compound] ?
Result :: 78
